# TEST DETAILS: method code SF-AS, from DOI: 10.1002/chin.198834177
# CONDITION SET: pH 5.6
QUANTITY KIND: logD

MOLECULE	OBSERVED RESULT
CCOC(=O)C(C)n1nnc2ccccc21 (centres undefined)	1.87
CCOC(=O)CCC(C)n1nc2ccccc2n1 (centres undefined)	3.05
CCCCC(C(=O)OCC)n1nnc2ccccc21 (centres undefined)	3.32
CC(CCC(N)=O)n1nc2ccccc2n1 (centres undefined)	1.35
CCCCC(C(N)=O)n1nnc2ccccc21 (centres undefined)	1.88
CCOC(=O)C(CC)n1nc2ccccc2n1 (centres undefined)	2.88
c1ccc2c(c1)nnn2C1CCCCC1	3.11
CCOC(=O)C(CC)n1nnc2ccccc21 (centres undefined)	2.34
CCOC(=O)C(C)n1nc2ccccc2n1 (centres undefined)	2.38
